Item-by-item account of IC50
# measurement_target: GST-fused human Keap1 (amino acid residues: 325-642) protein (Homo sapiens (Human))
# Sequence (Q14145 325-624 limits assumed): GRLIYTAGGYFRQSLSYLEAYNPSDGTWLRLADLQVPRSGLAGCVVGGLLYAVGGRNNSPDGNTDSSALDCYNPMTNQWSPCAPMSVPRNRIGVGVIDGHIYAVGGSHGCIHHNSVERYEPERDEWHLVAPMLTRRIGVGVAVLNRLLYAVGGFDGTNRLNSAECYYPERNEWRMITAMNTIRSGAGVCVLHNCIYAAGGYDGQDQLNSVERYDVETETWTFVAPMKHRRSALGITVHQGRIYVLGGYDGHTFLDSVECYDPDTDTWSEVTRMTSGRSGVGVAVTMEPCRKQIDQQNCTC

IC50 value, target or system GST-fused human Keap1 (amino acid residues: 325-642) protein (Homo sapiens (Human)), for Cc1c(C(CC(=O)O)c2cc(CN3Cc4nc(O)ccc4OC4(CC4)[C@@H]3C)c3sccc3c2)ccc2c1nnn2C (single isomer, unassigned) [Example 60] : 30 to 300 nM

IC50 value, target or system GST-fused human Keap1 (amino acid residues: 325-642) protein (Homo sapiens (Human)), for CC[C@@H]1CN(Cc2cc([C@@H](CC(=O)O)c3ccc4c(nnn4CC(F)(F)F)c3C)cc3ccsc23)Cc2nc(O)ccc2O1 (single isomer, unassigned) [Example 28] : 10 to 30 nM

IC50 value, target or system GST-fused human Keap1 (amino acid residues: 325-642) protein (Homo sapiens (Human)), for `Cc1c([C@H](CC(=O)O)c2cc(CN3Cc4nc(O)ccc4O[C@H](C(F)(F)F)C3)c3sccc3c2)ccc2c1nnn2C` : 10 to 30 nM
